Assay procedure: gradient 5% acetonitrile 3 min, to 50% in 2 min, to 85% in 15 min, held 3 min, 100 µL/min
Condition label: column: Zorbax Extend-C18 2.1 x 50 mm; eluents: water / acetonitrile, 0.1% formic acid
Assay metric: RP-LC retention time (s)
Note: unit s is implicit; provide only the numeric part.

Previously resolved entries follow.
Compound	RP-LC retention time / s
Cc1oc(-c2ccc(C(=O)N3CCN(C)CC3)cc2)nc1CN1CCc2ccccc21	675
COC(=O)c1cccc(NC(=O)c2cnc(-c3ccc(F)cc3)nc2-c2ccncc2)c1	912
COc1nn(C)cc1C(=O)NCc1ccco1	599
CC(C)n1cc(C2=CCN(S(=O)(=O)Cc3cccc(Cl)c3)CC2)c2cccnc21	1130
O=C(C(c1ccccc1)n1cccc1)N1CCCC1 (centres undefined)	782
CN(CC(=O)N1CCN(c2ccccc2)CC1)S(=O)(=O)c1c[nH]c(C(=O)N2CCCC2)c1	744
O=C(c1ccc2c(c1)OCO2)N1C[C@H]2C[C@H](C1)[C@H]1CCCC(=O)N1C2	637
COc1ccc(-c2csc(NC(=O)CCc3c(C)[nH]c(=O)[nH]c3=O)n2)cc1	646

Per the records, this compound ( Cc1nc2c(OCc3ccccc3)cccn2c1CC#N ) has RP-LC retention time equal to 655

Origin of values: the METLIN SMRT retention time set (Domingo-Almenara et al. 2019)
